Procedure Details: HepG2 cell viability effects, profiling panel, calcein-AM fluorescence, 48 h, basal (AID 1164); further: test concentration not given here
Experimental Conditions: higher = more signal
Please note: condition met applies when z-score is -0.3 or greater, and condition not met applies otherwise.

Confirm if z-score reported for the molecule CN1C(=O)C2C(C1=O)C1C=C(CCCO)C2C(C2CC2)N1C (configuration not stated) is -0.3 or above.
condition met

Again, but for "COc1ccc(C(=O)Nc2ccc(CN3C(=O)[C@@]4(O[C@@H](CC(=O)N(CCO)Cc5ccccc5)[C@H]([Si](C)(C)c5ccc(OC)cc5)[C@H]4C)c4ccccc43)cc2)cc1"
condition not met

How about "COCCOC(=O)N1C(=O)[C@@]2(c3ccccc31)[C@H](C(=O)Nc1nc3ccccc3s1)[C@H]1C(=O)O[C@H](c3ccccc3)[C@H](c3ccccc3)N1[C@@H]2c1ccccc1OCCO" ?
condition not met

Next up: "COCCOC(=O)N1C(=O)[C@@]2(c3cc(C#CCNC(N)=O)ccc31)[C@H](C(=O)N1CCN(c3ncccn3)CC1)[C@H]1C(=O)O[C@H](c3ccccc3)[C@H](c3ccccc3)N1[C@@H]2c1ccc(O)cc1"
condition met

Continue with "COCCCNC(=O)[C@]1(Cc2ccccc2N=[N+]=[N-])N=C(c2ccc(OCCCO)cc2)O[C@@H]1c1ccccc1"
condition not met

Would you kindly repeat that for "COCCOC(=O)N1C(=O)[C@@]2(c3cc(C#CC4(O)CCCCCC4)ccc31)[C@H](C(N)=O)[C@H]1C(=O)O[C@H](c3ccccc3)[C@H](c3ccccc3)N1[C@@H]2c1ccc(OCCO)cc1" ?
condition not met

====

Tested On: Calmodulin-1 (Homo sapiens)
Procedure Details: CALM1 binders on microarrays, EGTA buffer, profiling panel, biochemical, small-molecule microarray, Cy5-labelled CALM1 (AID 1111);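 further: labelled calmodulin applied in Tris saline Tween buffer holding calcium plus EGTA and DTT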
Experimental Conditions: Cy5-CALM1 binding fluorescence, higher = more signal
Values of composite z-score greater than or equal to -0.2 map to 1.0; values below map to 0.0.

Identify whether the reported composite z-score of the following compound is -0.2 or greater: "C[N+](C)(C)CCCC[C@@H]1NC(=O)[C@H]2C[C@@H](C(=O)O)[C@@H](c3ccc(O)cc3)N2C1=O"
1.0

// query: "C=C(CCCC)/C(=C/C[C@@H](OC(C)=O)c1ccc(OCCO)cc1)c1cc(C(=O)OC)ccc1OC"
1.0

# iterate: "C=CCNC(=O)[C@H]1[C@@H]2C(=O)O[C@@H](c3ccccc3)[C@@H](c3ccccc3)N2[C@@H](c2ccc(OCCO)cc2)[C@]12C(=O)Nc1ccc(C#Cc3ccc(OC)cc3)cc12"
1.0

Try "CC(C)C[C@@H]1NC(=O)[C@H]2C[C@@H](C(=O)O)[C@@H](c3cccc(OCCO)c3)N2C1=O" next.
0.0

# repeat for "C=C[C@@H](CO)NS(=O)(=O)c1ccc(Br)cc1"
0.0

Would you kindly repeat that for "CO[C@H]1O[C@H](CO)[C@@H](OC(=O)Nc2cccc(F)c2)[C@H](OC(=O)Nc2ccc3c(c2)OCO3)[C@@H]1OC(=O)Nc1ccc2c(c1)OCO2" ?
1.0

Another: "CC(C)[Si]1(C(C)C)OCc2cc(-c3ccc(-c4ccc(Cl)c(Cl)c4)o3)nc(-c3ccc(Oc4ccccc4)cc3)c21"
1.0

Another compound to look at: "COc1ccc([Si](C)(C)[C@H]2[C@H](CC(=O)N(CCO)Cc3ccccc3)O[C@@]3(C(=O)N(Cc4ccc(N5C(=O)c6cccc7cccc5c67)cc4)c4ccccc43)[C@@H]2C)cc1"
1.0

Follow-up item: "COCCCNC(=O)[C@@]1(CCC(=O)OC(C)(C)C)N=C(c2ccc(OCCCO)cc2)O[C@H]1c1ccccc1"
1.0

Next compound up: "CCCC=C(CCC)[C@@H](NC(=O)c1ccc(C(=O)OC)cc1)c1ccc(C(=O)OC)cc1"
1.0

// same read-out, input: "CCOC(=O)C[C@H]1[C@H](OC(=O)c2ccc(-c3ccccc3)cc2)[C@@H](NC(=O)c2ccc(-c3ccccc3)cc2)c2cc(OCCCO)ccc2N1C(=O)c1ccccc1"
1.0

Item: CC(C)c1ccc(NN2C(C(O)C(C)c3ccccc3)C=CC3C(=O)N(c4ccccc4)C(=O)C32)cc1 (stereo not given)
1.0

And for "CCCNC(=O)[C@@]1(Sc2ccc(C)cc2)CC(=O)N(Cc2cc(C(F)(F)F)cc(C(F)(F)F)c2)[C@@H]1c1ccc(CO)cc1" ?
1.0

Moving on to "CC(C)Cc1ccc(CN2CC[C@@H](NC(=O)c3ccccc3)C2)cc1"
0.0

What do you get for "COCCCNC(=O)[C@@]1(c2ccc([N+](=O)[O-])cc2)CC(=O)N(C2CCCCC2)[C@@H]1c1ccc(CO)cc1I" ?
1.0
